The reported measurements were obtained from patent US20060063755A1.

target: hERG channel (Homo sapiens); experiment: hERG channel current block, whole cell recording in HEK293 cells; type: cell-based; details: HEK293 cells expressing hERG
Sequence (Q12809 whole entry): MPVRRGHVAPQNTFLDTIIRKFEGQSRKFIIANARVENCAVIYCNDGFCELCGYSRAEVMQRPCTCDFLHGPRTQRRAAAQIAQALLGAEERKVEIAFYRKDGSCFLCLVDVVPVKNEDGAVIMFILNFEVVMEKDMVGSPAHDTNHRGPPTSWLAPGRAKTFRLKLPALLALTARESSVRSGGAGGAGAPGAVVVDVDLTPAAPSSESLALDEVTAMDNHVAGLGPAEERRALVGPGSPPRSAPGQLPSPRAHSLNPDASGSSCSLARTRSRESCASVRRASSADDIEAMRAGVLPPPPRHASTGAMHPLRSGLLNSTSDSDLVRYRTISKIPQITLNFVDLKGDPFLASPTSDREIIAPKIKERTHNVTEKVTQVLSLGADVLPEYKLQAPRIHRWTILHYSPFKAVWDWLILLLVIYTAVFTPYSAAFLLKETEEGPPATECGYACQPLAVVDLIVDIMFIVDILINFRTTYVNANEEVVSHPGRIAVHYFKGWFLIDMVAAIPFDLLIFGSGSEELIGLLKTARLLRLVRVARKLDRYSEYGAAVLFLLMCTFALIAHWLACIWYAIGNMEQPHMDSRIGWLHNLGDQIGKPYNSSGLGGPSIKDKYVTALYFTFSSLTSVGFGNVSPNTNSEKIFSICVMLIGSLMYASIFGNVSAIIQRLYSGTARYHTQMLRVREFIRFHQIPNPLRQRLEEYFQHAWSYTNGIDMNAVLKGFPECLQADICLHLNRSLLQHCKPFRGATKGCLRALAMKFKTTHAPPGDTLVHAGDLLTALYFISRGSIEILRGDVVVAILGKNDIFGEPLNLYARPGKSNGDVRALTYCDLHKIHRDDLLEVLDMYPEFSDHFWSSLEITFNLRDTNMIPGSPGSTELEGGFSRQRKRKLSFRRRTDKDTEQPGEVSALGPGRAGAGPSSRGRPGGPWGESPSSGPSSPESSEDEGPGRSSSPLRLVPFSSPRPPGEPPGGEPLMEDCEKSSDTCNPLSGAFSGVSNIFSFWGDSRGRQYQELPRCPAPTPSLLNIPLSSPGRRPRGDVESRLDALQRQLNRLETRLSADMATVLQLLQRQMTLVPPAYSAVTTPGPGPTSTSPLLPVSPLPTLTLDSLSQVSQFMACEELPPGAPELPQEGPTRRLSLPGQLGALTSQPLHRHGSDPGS
Provide the recorded hERG at 10 micromolar (% blocking of the hERG channel) for the entries that follow.

- Molecule: "COc1ccc2c(c1)Oc1ccc(Br)cc1N=C2N1CCN(CC(C)(C)C(=O)O)CC1 [Compound 86]"
  Observed: "86.90%"
- Molecule: "CC(C)(CN1CCN(C2=Nc3ccccc3Oc3ccc(F)cc32)CC1)C(=O)O [Compound 4]"
  Observed: "8%"
- Molecule: "Cc1ccc2c(c1)Oc1ccccc1C(N1CCN(CC(C)(C)C(=O)O)CC1)=N2 [Compound 30]"
  Observed: "4.50%"
- Molecule: "COc1ccc2c(c1)Oc1ccc(OC)cc1C(N1CCN(CC(C)(C)C(=O)O)CC1)=N2 [Compound 35]"
  Observed: "0.10%"
- Molecule: "COc1ccc2c(c1)Oc1ccccc1N=C2N1CCN(CC(C)(C)C(=O)O)CC1 [Compound 39]"
  Observed: "61.40%"

Provide each entry's hERG at 10 micromolar (% blocking of the hERG channel) from the list below.
1. Cc1ccc2c(c1)N=C(N1CCN(CC(C)(C)C(=O)O)CC1)c1ccccc1O2 [Compound 19]
2. O=C(O)C1(CN2CCN(C3=Nc4ccccc4Oc4ccc(Cl)cc43)CC2)CC1 [Compound 7]
3. CC(C)(CCN1CCN(C2=Nc3ccccc3Oc3ccccc32)CC1)C(=O)O [Compound 3]

OUTPUT:
9.90%
42.8%
3.8%
